Consider the following molecules; for each one, report its MFC50.
Test system: Cryptococcus gattii species complex
Assay: Antifungal activity against Cryptococcus gattii after 48 to 72 hrs
Type: functional, Cryptococcus bacillisporus
Give bare numbers, in µg/mL.

Smiles data	MFC50, µg/mL
C=CCCCc1cc[n+](CCCCCCCCCCCC[n+]2ccc(CCCC=C)cc2)cc1.[Cl-].[Cl-]	2.94

// each listed molecule needs a value for MFC50
1. CCCCCc1cc[n+](CCCCCCCCCCCC[n+]2ccc(CCCCC)cc2)cc1.[Cl-].[Cl-]
2. CCCCCCc1cc[n+](CCCCCCCCCCCC[n+]2ccc(CCCCCC)cc2)cc1.[Cl-].[Cl-]

### Response
1. 1.48
2. 0.79

### Prompt Which MFC50 is reported for this molecule? "CCCCCc1cc[n+](CCCCCCCCCCCC[n+]2ccc(CCCCC)c(C)c2)cc1C.[Cl-].[Cl-]"
### Response 0.79

Ref: ChEMBL document CHEMBL1629527
